# experimental.system: Bcl-2 protein (Recombinant Human Bcl-2 Protein) (Homo sapiens)
# Construct: purchased Novus Biologicals NBP2-34889
# Sequence (P10415 whole entry): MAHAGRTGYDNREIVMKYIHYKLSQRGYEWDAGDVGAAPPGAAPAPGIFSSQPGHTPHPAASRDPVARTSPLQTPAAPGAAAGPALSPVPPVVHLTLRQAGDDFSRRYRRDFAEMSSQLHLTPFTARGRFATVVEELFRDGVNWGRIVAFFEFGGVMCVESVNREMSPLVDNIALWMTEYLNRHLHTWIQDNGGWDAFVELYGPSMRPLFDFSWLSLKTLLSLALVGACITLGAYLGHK
# test.method.notes: AS-MS evaluation of binding of the Example 4 mixture library (1200 compounds/well) to Bcl-2, ASMS ratio (%)
# assay.setup: AS-MS, Example 4 mixture library, Bcl-2, replicate n = 1
value.type: ASMS ratio (%) n = 1

>>> print(df.to_string())
                                smiles_repr  measure_unit  recorded_number
0  CCOc1cncc(-c2cc(CN3CCN(c4ccc(C(=O)NS(=O)(=O)CCC(F)(F)F)nn4)CC3)cc(C(F)(F)F)c2)c1             %              0.0
1  CCOc1cncc(-c2ccc(CN3CCN(c4ccc(C(=O)NS(=O)(=O)CCC(F)(F)F)nn4)CC3)cc2F)c1             %              0.0
2  CCOc1cccc(-c2cc(C(=O)N3CCN(c4ccc(C(=O)NS(=O)(=O)c5ccc(NCCSc6ccccc6)c(C(F)(F)F)c5)nn4)CC3)cc(C(F)(F)F)c2)c1             %             32.9
3  CCOc1cncc(-c2csc(CN3CCN(c4ccc(C(=O)NS(=O)(=O)CCC(F)(F)F)nn4)CC3)c2)c1             %              0.0
4  CCOc1cncc(-c2cc(OC)c(CN3CCN(c4ccc(C(=O)NS(=O)(=O)CCC(F)(F)F)cc4)CC3)c(OC)c2)c1             %              0.0
5  CCOc1cccc(-c2cc(OC)c(CN3CCN(c4ccc(C(=O)NS(=O)(=O)c5ccc(NCCSc6ccccc6)c(C(F)(F)F)c5)cc4)CC3)c(OC)c2)c1             %              0.0
6  CCOc1cccc(-c2cc(CN3CCN(c4ccc(C(=O)NS(=O)(=O)C(C)(C)C)nn4)CC3)cc(OC(F)(F)F)c2)c1             %              0.0

(I) CCOc1cccc(-c2ccccc2CN2CCN(c3ccc(C(=O)NS(=O)(=O)CCC(F)(F)F)cc3)CC2)c1
(II) CCOc1cccc(-c2ccc(CN3CCN(c4ccc(C(=O)NS(=O)(=O)c5ccc(NCCSc6ccccc6)c(C(F)(F)F)c5)nn4)CC3)cc2C)c1
Lookup: I'm curious whether I or II has the smaller ASMS ratio (%) n = 1 number. Which is it? Lab note: record the label of whichever item you select.
Found: I
(I: 0.0%, II: 24.0%)
